Sourced from patent US20250179077A1

biological target: His-tagged KRAS G12D protein (Homo sapiens, UniProt P01116, G12D); experiment: KRAS G12D TR-FRET Assay
Sequence (P01116 1-188 isoform P01116-2 G12D): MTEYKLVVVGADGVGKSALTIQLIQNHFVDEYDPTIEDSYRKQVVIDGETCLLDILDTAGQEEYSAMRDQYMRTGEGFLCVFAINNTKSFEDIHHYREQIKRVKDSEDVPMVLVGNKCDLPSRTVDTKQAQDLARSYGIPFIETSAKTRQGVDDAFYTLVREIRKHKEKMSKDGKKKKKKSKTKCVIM
measurement-kind: log10 IC50 (log10 of the value in nM)
The figures below represent log10 of IC50, where IC50 is stated in nM.

Retrieve log10 IC50 on His-tagged KRAS G12D protein (Homo sapiens, UniProt P01116, G12D); query C[C@@]1(O)COCCN(c2nc(OC[C@@]34CCCN3C[C@H](F)C4)nc3c(F)c(-c4cc(O)cc5ccc(F)c(Cl)c45)ccc23)C1 (single isomer, unassigned)
0.70

State the measured log10 IC50 (His-tagged KRAS G12D protein (Homo sapiens, UniProt P01116, G12D)) of CCc1c(F)ccc2cc(O)cc(-c3c(F)cc4c(N5C[C@@H]6CO[C@@H](C6)C5)nc(OC[C@@]56CCCN5C[C@H](F)C6)nc4c3F)c12 (racemic)
1.30

Recall the reported log10 IC50 of "CCc1c(F)ccc2cc(O)cc(-c3c(F)cc4c(N5CCCOCC5)nc(OC[C@@]56CCCN5C[C@H](F)C6)nc4c3F)c12" when tested on His-tagged KRAS G12D protein (Homo sapiens, UniProt P01116, G12D).
0.60

GET log10 IC50 where system = His-tagged KRAS G12D protein (Homo sapiens, UniProt P01116, G12D) and item = "Cc1c(Cl)cc2[nH]ncc2c1-c1c(F)cc2c(N3CCC[C@@](C)(O)C3)nc(OC[C@@]34CCCN3C[C@H](F)C4)nc2c1F"
1.00

Find the measured log10 IC50 of "C/C=C\c1c(C)cc2[nH]ncc2c1-c1ccc2c(N3CCOC[C@@](C)(O)C3)nc(OC[C@@]34CCCN3C[C@H](F)C4)nc2c1F" with His-tagged KRAS G12D protein (Homo sapiens, UniProt P01116, G12D) as test system.
0.85

State, for His-tagged KRAS G12D protein (Homo sapiens, UniProt P01116, G12D), measured log10 IC50 of the compound listed here: CCc1c(F)ccc2cc(N)cc(-c3c(F)cc4c(N5CCC[C@]6(CNC(=O)O6)C5)nc(OC[C@@]56CCCN5C[C@H](F)C6)nc4c3F)c12 (single isomer, unassigned)
0.60

Fetch value of log10 IC50 on His-tagged KRAS G12D protein (Homo sapiens, UniProt P01116, G12D) for CCc1c(F)ccc2cc(O)cc(-c3ccc4c(N5CCC(C(N)=O)C5)nc(OC[C@@]56CCCN5C[C@H](F)C6)nc4c3F)c12 (stereo partly drawn) .
1.34

Report measured log10 IC50 on His-tagged KRAS G12D protein (Homo sapiens, UniProt P01116, G12D); entry: CCc1c(F)ccc2cc(O)cc(-c3c(F)cc4c(N5CCCC6(CNC(=O)O6)C5)nc(OC[C@@]56CCCN5C[C@H](F)C6)nc4c3F)c12 (single isomer, unassigned) [Example 59]
1.32

Provide log10 IC50, system His-tagged KRAS G12D protein (Homo sapiens, UniProt P01116, G12D), entry CCc1c(F)ccc2cc(O)cc(-c3c(F)cc4c(N5CCCC6(CCO6)C5)nc(OC[C@@]56CCCN5C[C@H](F)C6)nc4c3F)c12 (single isomer, unassigned) [Example 39]
0.48

Report log10 IC50 from His-tagged KRAS G12D protein (Homo sapiens, UniProt P01116, G12D) testing of C#Cc1c(F)ccc2cc(O)cc(-c3c(F)cc4c(N5CCC[C@@](C)(O)C5)nc(OC[C@@]56CCCN5C[C@H](F)C6)nc4c3F)c12 (single isomer, unassigned) [Example 14]
0.00

Enter log10 IC50 (test system His-tagged KRAS G12D protein (Homo sapiens, UniProt P01116, G12D)) for C#Cc1cccc2cc(O)cc(-c3c(F)cc4c(N5CCC[C@@](C)(O)C5)nc(OC[C@@]56CCCN5C[C@H](F)C6)nc4c3F)c12 (single isomer, unassigned) [Example 11]
2.33

Please report the measured log10 IC50 for CCc1c(F)ccc2cc(O)cc(-c3ccc4c(N5CCC[C@]6(CNC(=O)O6)C5)nc(OC[C@@]56CCCN5C[C@H](F)C6)nc4c3F)c12 (single isomer, unassigned) tested on His-tagged KRAS G12D protein (Homo sapiens, UniProt P01116, G12D).
1.18

Return reported log10 IC50 for target or system His-tagged KRAS G12D protein (Homo sapiens, UniProt P01116, G12D), item CCc1c(F)ccc2cc(O)cc(-c3ccc4c(N5CCC[C@]6(COC(=O)O6)C5)nc(OC[C@@]56CCCN5C[C@H](F)C6)nc4c3F)c12 (single isomer, unassigned) .
0.78

Quote log10 IC50 with test system His-tagged KRAS G12D protein (Homo sapiens, UniProt P01116, G12D) for Cc1cc2[nH]ncc2c(-c2c(F)cc3c(N4CCC[C@@](C)(O)C4)nc(OC[C@@]45CCCN4C[C@H](F)C5)nc3c2F)c1[C@H]1C[C@H]1C (atropisomer, axis not shown; (aS))
0.95

Give the observed log10 IC50 of C/C=C\c1c(Cl)cc2[nH]ncc2c1-c1ccc2c(N3CCC[C@](O)(CF)C3)nc(OC[C@@]34CCCN3C[C@H](F)C4)nc2c1F (single isomer, unassigned) for His-tagged KRAS G12D protein (Homo sapiens, UniProt P01116, G12D).
0.60

// fetch log10 IC50 for C#Cc1c(F)ccc2cccc(-c3c(F)cc4c(N5CCC[C@@](C)(O)C5)nc(OC[C@@]56CCCN5C[C@H](F)C6)nc4c3F)c12 (single isomer, unassigned) [Example 67] ; system: His-tagged KRAS G12D protein (Homo sapiens, UniProt P01116, G12D)
0.60

Look up and report measured log10 IC50 (His-tagged KRAS G12D protein (Homo sapiens, UniProt P01116, G12D)) for the following compound: CCc1cccc2cc(O)cc(-c3ccc4c(N5CCOCC(C)(O)C5)nc(OC[C@@]56CCCN5C[C@H](F)C6)nc4c3F)c12 (single isomer, unassigned)
0.48

Provide log10 IC50, recorded with His-tagged KRAS G12D protein (Homo sapiens, UniProt P01116, G12D), of "Oc1cc(-c2ccc3c(N4CCCOCC4)nc(OCC45CCCN4CCC5)nc3c2F)c2ccccc2c1"
1.34

Give log10 IC50 only, for "CCc1c(F)ccc2cc(O)cc(-c3c(Cl)cc4c(N5CCC[C@@](C)(O)C5)nc(OC[C@@]56CCCN5C[C@H](F)C6)nc4c3F)c12" , using His-tagged KRAS G12D protein (Homo sapiens, UniProt P01116, G12D) data.
0.60

Provide the reported log10 IC50 (system: His-tagged KRAS G12D protein (Homo sapiens, UniProt P01116, G12D)) for C#Cc1c(F)ccc2cc(N)cc(-c3c(F)cc4c(N5CCC[C@@](C)(O)C5)nc(OC[C@@]56CCCN5C[C@H](F)C6)nc4c3F)c12 (single isomer, unassigned)
2.35

Specify the recorded log10 IC50 for C[C@@H]1C[C@@H]1c1c(Cl)cc2[nH]ncc2c1-c1c(F)cc2c(N3CCC[C@]4(CNC(=O)O4)C3)nc(OC[C@@]34CCCN3C[C@H](F)C4)nc2c1F (relative stereo) , system: His-tagged KRAS G12D protein (Homo sapiens, UniProt P01116, G12D).
0.70
